Tested on: Escherichia coli TOP10;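 note: peptides expressed intracellularly from a pBAD plasmid library in pooled LB shake-flask culture, induced with 0.3% L-arabinose, DNA abundance read by NGS, three biological replicates, DESeq2 with apeglm shrinkage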
Assay: shrunken log2 fold change of peptide-encoding DNA abundance (4.5 h post-induction vs induction); higher = less antimicrobial activity (less host growth inhibition)
Conditions: time post-induction: 4.5 h; library: site-saturation at positions 5, 18, 19, 20
Kindly return rule met if reported shrunken log2 fold change is no lower than 0.04; return rule not met if it is lower.

// known answers, use as guide
1. RRIRLRPPRLPRPRPRPHDLPRP rule not met
2. RRIRNRPPRLPRPRPRPLAHPRP rule met

Input: hey, is shrunken log2 fold change for this one >= 0.04? RRIRSRPPRLPRPRPRPTEMPRP
Output: rule met

Input: Given RRIRMRPPRLPRPRPRPMPKPRP , state whether its shrunken log2 fold change is at least 0.04.
Output: rule met

Input: Check this sequence for shrunken log2 fold change at or above 0.04: RRIRSRPPRLPRPRPRPPNYPRP
Output: rule not met

Input: Does the reported shrunken log2 fold change for RRIRLRPPRLPRPRPRPPYDPRP fall at or above the 0.04 mark?
Output: rule not met

Input: Entry RRIRARPPRLPRPRPRPWMAPRP : is its shrunken log2 fold change no less than 0.04?
Output: rule met

Input: # bool: shrunken log2 fold change of RRIRSRPPRLPRPRPRPHHKPRP >= 0.04
Output: rule not met

Input: # bool: shrunken log2 fold change of RRIRDRPPRLPRPRPRPGHMPRP >= 0.04
Output: rule not met

Input: Reported shrunken log2 fold change at or above 0.04? RRIRKRPPRLPRPRPRPSAFPRP
Output: rule met

Input: In plain terms: is recorded shrunken log2 fold change at least 0.04 for RRIRCRPPRLPRPRPRPHIIPRP ?
Output: rule not met
